I'd be grateful if you could share measured IC50 for these entries.
Biological target: UniProt:P08581
Sequence (P08581 25-1390): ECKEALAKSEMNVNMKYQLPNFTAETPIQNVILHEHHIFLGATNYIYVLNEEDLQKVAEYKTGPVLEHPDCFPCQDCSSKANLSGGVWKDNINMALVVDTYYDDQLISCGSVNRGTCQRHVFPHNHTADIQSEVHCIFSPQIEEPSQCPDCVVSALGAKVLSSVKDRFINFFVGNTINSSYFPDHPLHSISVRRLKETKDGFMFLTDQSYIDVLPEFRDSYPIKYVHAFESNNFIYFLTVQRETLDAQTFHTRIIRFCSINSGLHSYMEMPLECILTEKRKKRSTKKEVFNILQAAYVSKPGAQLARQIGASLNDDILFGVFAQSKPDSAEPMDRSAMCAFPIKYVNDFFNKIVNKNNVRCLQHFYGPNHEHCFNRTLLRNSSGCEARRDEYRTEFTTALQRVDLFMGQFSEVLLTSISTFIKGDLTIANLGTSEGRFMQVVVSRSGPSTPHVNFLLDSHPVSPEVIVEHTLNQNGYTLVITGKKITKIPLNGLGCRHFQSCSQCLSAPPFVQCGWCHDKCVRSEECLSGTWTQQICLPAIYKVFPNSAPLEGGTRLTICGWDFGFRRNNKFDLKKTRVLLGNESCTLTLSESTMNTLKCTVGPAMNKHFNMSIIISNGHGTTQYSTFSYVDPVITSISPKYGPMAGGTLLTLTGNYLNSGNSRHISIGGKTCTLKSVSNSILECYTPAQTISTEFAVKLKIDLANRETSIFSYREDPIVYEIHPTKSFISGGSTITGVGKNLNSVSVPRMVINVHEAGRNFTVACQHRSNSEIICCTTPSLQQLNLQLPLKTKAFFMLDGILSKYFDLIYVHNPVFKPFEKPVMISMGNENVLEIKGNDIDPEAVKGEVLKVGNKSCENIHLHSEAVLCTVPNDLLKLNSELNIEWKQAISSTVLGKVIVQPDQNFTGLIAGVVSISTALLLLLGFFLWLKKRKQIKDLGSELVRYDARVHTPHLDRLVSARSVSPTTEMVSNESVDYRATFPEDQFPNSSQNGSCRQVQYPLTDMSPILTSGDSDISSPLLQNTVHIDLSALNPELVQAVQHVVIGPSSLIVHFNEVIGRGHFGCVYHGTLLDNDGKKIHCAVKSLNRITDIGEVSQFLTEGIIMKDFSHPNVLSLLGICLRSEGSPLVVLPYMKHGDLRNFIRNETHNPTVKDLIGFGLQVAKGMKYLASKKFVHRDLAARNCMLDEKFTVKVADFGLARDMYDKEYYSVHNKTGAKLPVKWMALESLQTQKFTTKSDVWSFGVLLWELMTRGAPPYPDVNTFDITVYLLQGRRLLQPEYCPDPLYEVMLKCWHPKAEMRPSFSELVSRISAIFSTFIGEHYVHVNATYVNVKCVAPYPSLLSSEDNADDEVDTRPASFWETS
Assay: MET (human) AlphaScreen kinase assay, Km of ATP
Format: biochemical
Conditions: AlphaScreen, Km of ATP; read-out: Met biochemical IC50
Experimental: Someone skilled in the art will appreciate that a variety of assay formats may be used to determine the activity of the compounds of this invention. For example, AlphaScreen (Amplified Luminescent Proximity Homogeneous Assay) technology was used with the kinases described below. […] Desired compound is added in a final concentration of 1% DMSO with control being vehicle of DMSO alone. […] The plates, incubated for 1 h, are read on an AlphaQuest plate reader

Prompt: So what does the record say about IC50 for `C[C@@H](Oc1c(N)ncc2c(-c3ccc(CN4CCN(C)CC4)s3)coc12)c1c(Cl)ccc(F)c1Cl` ?
Completion: < 500 nM

Prompt: So what does the record say about IC50 for C#CCC(Oc1c(N)ncc2c(C3=CCN(C(N)=O)CC3)coc12)c1c(Cl)ccc(F)c1Cl (stereo not shown) ?
Completion: < 500 nM

Prompt: So what does the record say about IC50 for `COC(=O)c1csc(-c2coc3c(O[C@H](C)c4c(Cl)ccc(F)c4Cl)c(N)ncc23)c1` ?
Completion: 500 to 5000 nM

Prompt: So what does the record say about IC50 for CC(Oc1c(N)ncc2c(-c3cnn(C4CCNCC4)c3)coc12)c1cccc(-c2ccc[nH]2)c1 (stereo not shown) ?
Completion: 500 to 5000 nM
